# System: mKate-E0771 cells
# assay: MTT cell viability assay
# Type: cell-based, mouse
# experimental-parameters: H5 6.3 (head prints mM), 1 h, 37 °C; Data 2
Where no end group is shown, it is not given here.
measurement-type: Cell viability (MTT), normalized to untreated cells (%)
Unit % implied. Number only.

Query: What Cell viability (MTT), normalized to untreated cells appears in the records for this substance with mKate-E0771 cells? IEPDAL [H5, FRET hexapeptide IEPDAL with BODIPY-FL fluorophore at the N-terminal end and Dabcyl quencher]
Result: 93

---

Overview of reported HPLC conversion (20 nM hGzmB, 2 h) across a group of substances:
# target-desc: human GzmB (hGzmB) (Homo sapiens)
# Construct: For active GzmB vs pro-GzmB, p < 0.0001
# Sequence (P10144 21-247): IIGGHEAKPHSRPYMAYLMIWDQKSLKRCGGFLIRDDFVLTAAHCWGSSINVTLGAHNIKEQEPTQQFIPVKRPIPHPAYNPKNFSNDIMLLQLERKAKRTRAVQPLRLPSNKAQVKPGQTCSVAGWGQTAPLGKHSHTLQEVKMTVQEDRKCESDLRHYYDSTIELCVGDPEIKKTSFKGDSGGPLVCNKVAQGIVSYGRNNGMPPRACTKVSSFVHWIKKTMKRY
# assay: HPLC conversion of fluorogenic peptides by hGzmB
# Type: biochemical
# experimental-parameters: probe 25 μM (Ac-IEPD-AMC 50 μM), TRIS buffer, 37 °C, HPLC-UV
Where no end group is shown, it is not given here.
Unit % implied. Number only.

Solved entries:
IEPDWL [H4, FRET hexapeptide IEPDWL]	82
IEPDSG [H2, FRET hexapeptide IEPDSG]	80
IEPDAL [H5, FRET hexapeptide IEPDAL with BODIPY-FL fluorophore at the N-terminal end and Dabcyl quencher]	100

Query: Fill in: HPLC conversion (20 nM hGzmB, 2 h) of IEFDAL [H5m, hexapeptide analogue containing phenylalanine, IEFDAL] is ___
Result: 70

Query: Fill in: HPLC conversion (20 nM hGzmB, 2 h) of IEPDSL [H3, FRET hexapeptide IEPDSL] is ___
Result: 80

Query: Fill in: HPLC conversion (20 nM hGzmB, 2 h) of IEPDWR [H6, negative control FRET hexapeptide IEPDWR] is ___
Result: 40

Query: Fill in: HPLC conversion (20 nM hGzmB, 2 h) of IEPDRL [H7, negative control FRET hexapeptide IEPDRL] is ___
Result: 60
